Tested on: Rattus norvegicus
protocol_notes: Immunosuppressive activity against skin allograft in F344 recipient (rat) from LEW donor (rat) at a concentration of 3 mg/kg
Type: functional
measure_name: MST (days)
Hi! Could you send only the number? It should be in days, unit omitted.

Consider the following illustrative entries.
Problem: Fill in MST for CCCCCCCCc1ccc(CCC(N)(CO)CO)s1.Cl tested with Rattus norvegicus.
Solution: 21

Problem: Fill in MST for CCCCCCCCCc1ccc(CC(N)(CO)CO)cc1.Cl tested with Rattus norvegicus.
Solution: 9.8

Problem: Fill in MST for CCc1ccc(CCCCCCCCC(N)(CO)CO)cc1.Cl tested with Rattus norvegicus.
Solution: 8.5

Problem: Fill in MST for CCCCCCCCCCCCc1ccc(CCC(N)(CO)CO)cc1.Cl tested with Rattus norvegicus.
Solution: 53

Problem: Fill in MST for CCCCCCCN(C)c1ccc(CCC(N)(CO)CO)cc1.Cl tested with Rattus norvegicus.
Solution: 29

Continuing:
Problem: Fill in MST for CCCCCCCc1ccc(CCCC(N)(CO)CO)cc1.Cl tested with Rattus norvegicus.
Solution: 9

From: ChEMBL document CHEMBL1133083
